Known pIC50 of a selection of molecules
Molecular target: Growth factor receptor-bound protein 2 (Homo sapiens, UniProt P62993)
Sequence (P62993 whole entry): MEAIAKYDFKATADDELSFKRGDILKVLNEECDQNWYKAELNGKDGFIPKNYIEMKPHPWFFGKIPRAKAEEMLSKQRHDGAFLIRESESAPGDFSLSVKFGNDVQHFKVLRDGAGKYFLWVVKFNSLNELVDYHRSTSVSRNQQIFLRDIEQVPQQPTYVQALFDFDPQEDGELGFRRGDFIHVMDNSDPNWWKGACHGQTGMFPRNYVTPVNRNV
pIC50: −log10 of the molar value.

- Smiles record: "CC(=O)N[C@@H](Cc1ccc(OP(=O)(O)O)cc1)C(=O)N[C@@H](C)c1nc(Cc2ccc3ccccc3c2)no1"
  Target or test system: "Growth factor receptor-bound protein 2 (Homo sapiens, UniProt P62993)"
  Operator: "<"
  pIC50: 3.30
- Smiles record: "CC(=O)N[C@@H](Cc1ccc(OP(=O)(O)O)cc1)C(=O)N[C@@H](C)c1nc(Cc2ccc(C(F)(F)F)cc2)no1"
  Target or test system: "Growth factor receptor-bound protein 2 (Homo sapiens, UniProt P62993)"
  Operator: "<"
  pIC50: 3.30
- Smiles record: "CC(=O)N[C@@H](Cc1ccc(OP(=O)(O)O)cc1)C(=O)N[C@@H](CCC(N)=O)c1nc(Cc2ccc3ccccc3c2)no1"
  Target or test system: "Growth factor receptor-bound protein 2 (Homo sapiens, UniProt P62993)"
  Operator: "="
  pIC50: 3.49
- Smiles record: "CC(=O)N[C@@H](Cc1ccc(OP(=O)(O)O)cc1)C(=O)N[C@@H](CO)c1nc(Cc2ccc3ccccc3c2)no1"
  Target or test system: "Growth factor receptor-bound protein 2 (Homo sapiens, UniProt P62993)"
  Operator: "="
  pIC50: 3.32

---

Recorded IC50 values (Growth factor receptor-bound protein 2 (Homo sapiens, UniProt P62993)) are given below.
Endpoint name: IC50 (µM)

- Smiles record: "CC(=O)N[C@@H](Cc1ccc(OP(=O)(O)O)cc1)C(=O)N[C@@H](C)c1nc(Cc2ccc(Cl)c(Cl)c2)no1"
  Endpoint name: "IC50"
  Operator: ">"
  Recorded measurement: 500
- Smiles record: "CC(=O)N[C@@H](Cc1ccc(OP(=O)(O)O)cc1)C(=O)N[C@@H](CCC(N)=O)c1nc(Cc2ccccc2)no1"
  Endpoint name: "IC50"
  Operator: "="
  Recorded measurement: 456
- Smiles record: "CC(=O)N[C@@H](Cc1ccc(OP(=O)(O)O)cc1)C(=O)N[C@@H](CO)c1nc(Cc2ccc(C(F)(F)F)cc2)no1"
  Endpoint name: "IC50"
  Operator: ">"
  Recorded measurement: 500
- Smiles record: "CC(=O)N[C@@H](Cc1ccc(OP(=O)(O)O)cc1)C(=O)N[C@@H](CCC(N)=O)c1nc(Cc2ccc(Cl)c(Cl)c2)no1"
  Endpoint name: "IC50"
  Operator: "="
  Recorded measurement: 441

---

pIC50: −log10 of the molar value. Square brackets hold non-standard residues; d marks the D form. Peptide text beside a SMILES is read from it. pY = N[C@@H](Cc1ccc(OP(=O)(O)O)cc1)C(=O)O
The following compounds each carry a recorded pIC50 for Tyrosine-protein kinase SYK (Homo sapiens).

- Compound: "COc1ccc(CC(=O)N[C@@H](Cc2ccc(OP(=O)(O)O)cc2)C(=O)N[C@@H](C)c2nc(Cc3ccc(C(F)(F)F)cc3)no2)cc1"
  pIC50: "< 3.30"
- Compound: "CC(=O)N[C@@H](Cc1ccc(OP(=O)(O)O)cc1)C(=O)N[C@@H](C)c1nc(Cc2ccc(I)c(Cl)c2)no1"
  pIC50: 3.33
- Compound: "CC(=O)N[C@@H](Cc1ccc(OP(=O)(O)O)cc1)C(=O)N[C@@H](C)c1nc(Cc2ccc(C(F)(F)F)cc2)no1"
  pIC50: "< 3.30"
- Compound: "CC[C@H](C)[C@H](NC(=O)[C@H](CCC(=O)O)NC(=O)[C@H](CCC(=O)O)NC(=O)[C@H](Cc1ccc(OP(=O)(O)O)cc1)NC(C)=O)C(N)=O"
  pIC50: 3.77
- Compound: "CC(=O)N[C@@H](Cc1ccc(OP(=O)(O)O)cc1)C(=O)N[C@@H](CCC(N)=O)c1nc(CCc2ccccc2)no1"
  pIC50: "< 3.30"
- Compound: "CC(=O)N[C@@H](Cc1ccc(OP(=O)(O)O)cc1)C(=O)N[C@@H](CCc1ccccc1)c1nc(Cc2ccc3ccccc3c2)no1"
  pIC50: 3.54
- Compound: "CC(=O)N[C@@H](Cc1ccc(OP(=O)(O)O)cc1)C(=O)N[C@@H](C)c1nc(Cc2ccc(Br)cc2)no1"
  pIC50: "< 3.30"
- Compound: "CC(=O)N[C@@H](Cc1ccc(OP(=O)(O)O)cc1)C(=O)N[C@@H](C)c1nc(Cc2ccc(I)c(Br)c2)no1"
  pIC50: "< 3.30"
- Compound: "CC(=O)N[C@@H](Cc1ccc(OP(=O)(O)O)cc1)C(=O)N[C@@H](CO)c1nc(Cc2ccc(Cl)c(Cl)c2)no1"
  pIC50: "< 3.30"
- Compound: "CC(=O)N[C@@H](Cc1ccc(OP(=O)(O)O)cc1)C(=O)N[C@@H](CC(=O)O)C(=O)N[C@H](C(=O)N[C@@H](CC(C)C)C(N)=O)C(C)C (Ac-[pY]DVL-NH2)"
  pIC50: 3.41
- Compound: "CC(=O)N[C@@H](Cc1ccc(OP(=O)(O)O)cc1)C(=O)N[C@@H](CO)c1nc(Cc2ccc(F)cc2)no1"
  pIC50: "< 3.30"
- Compound: "CC(=O)N[C@@H](Cc1ccc(OP(=O)(O)O)cc1)C(=O)N[C@@H](CO)c1nc(Cc2ccc(C(F)(F)F)cc2)no1"
  pIC50: "< 3.30"
- Compound: "CC(=O)N[C@@H](Cc1ccc(OP(=O)(O)O)cc1)C(=O)N[C@@H](CCC(N)=O)c1nc(Cc2ccc(Cl)c(Cl)c2)no1"
  pIC50: "< 3.30"
